Cited source: paper PMC10447463

Property: Zeta-pot. / mV; scope: individual substances
Assay: Zeta-potential measurement
Type: physicochemical
Settings: zeta potential of peptide; Fig S15 source data
Method: 4 µL of 1 mg/mL peptide fibrils solution is added to a 20 µL, 50 µM ThT–solution in PBS. The mixture is incubated for 15 min at RT to allow binding of ThT dye with β–sheet rich structures. […] Fluorescence spectra were recorded on an Infinite® M1000 PRO microplate reader (Tecan) at λem = 488 nm upon excitation at λex = 440 nm with 10 nm bandwidths and multiple reads per well (3×3). […] Furthermore, fluorescence microscopy was conducted by staining 1 µL preformed fibrils (1 mg/mL) with 9 µL ThT (50 µM). […]

substance: KIKIQIW [TM69]
Zeta-pot. / mV [mV]: 12.5
//
substance: KYKGAIIGNIK [CN19]
Zeta-pot. / mV [mV]: -9.14
//
substance: CHLHLQL [CN9]
Zeta-pot. / mV [mV]: -12.27
//
substance: RGDSKIKIQIC [TM113 / RC11]
Zeta-pot. / mV [mV]: 15.1
//
substance: KYKYQY [KB1]
Zeta-pot. / mV [mV]: -4.2
//
substance: HRRHFRHKITKKK [CN29]
Zeta-pot. / mV [mV]: -9.223
//
substance: QCKIKIQINMWQ [EF-C opt]
Zeta-pot. / mV [mV]: 11.73
//
substance: KFKQFFNMWQ [JG5]
Zeta-pot. / mV [mV]: -3.43
//
substance: EIEIQINM [TM95 / (TM75)]
Zeta-pot. / mV [mV]: -23.33
//
substance: KIKIQIRGD [MG6]
Zeta-pot. / mV [mV]: 6.43
//
substance: KAKAKAQA [TG15]
Zeta-pot. / mV [mV]: -9.01
//
substance: KIKIQIN [JGB3]
Zeta-pot. / mV [mV]: 3.34
//
substance: KIKIKIKI [TM13]
Zeta-pot. / mV [mV]: 5.46
//
substance: NMWQKIKIQI [JG9]
Zeta-pot. / mV [mV]: 8.26
//
substance: HGEHGE [CN6]
Zeta-pot. / mV [mV]: -12.6
//
substance: CSISIQINM [TM145]
Zeta-pot. / mV [mV]: -19.4
//
substance: CKYKYQY [KB2]
Zeta-pot. / mV [mV]: 1.49
//
substance: QCKAKAQANMWQ [CK22]
Zeta-pot. / mV [mV]: -8.05
//
substance: HHHHKAKAKAKAYYYY [TM10]
Zeta-pot. / mV [mV]: 7.03
//
substance: QCKIKIQINM [CK2]
Zeta-pot. / mV [mV]: 11.37
//
substance: KLKQLL [KM27 / psis14]
Zeta-pot. / mV [mV]: -8.46
//
substance: RGECKFKFQF [CN16]
Zeta-pot. / mV [mV]: 23.97
//
substance: KFKFQFFF [TG12]
Zeta-pot. / mV [mV]: 13.27
//
substance: RGDKIKIQIC [MG7/CN1]
Zeta-pot. / mV [mV]: 16.5
//
substance: CKWKWQW [KB4]
Zeta-pot. / mV [mV]: 14.7
//
substance: RGDKIKIQINMC [psis29]
Zeta-pot. / mV [mV]: 12.2
//
substance: NMWQKVGTPL [JG7]
Zeta-pot. / mV [mV]: -9.62
//
substance: EIEIQINMWQ [VH8]
Zeta-pot. / mV [mV]: -19.13
//
substance: QCKIKIQI [CK3]
Zeta-pot. / mV [mV]: 9.52
//
substance: KIKIQIMQWN [VH16]
Zeta-pot. / mV [mV]: 9.44
//
substance: KFKFQFNM [BL6a]
Zeta-pot. / mV [mV]: 13.9
//
substance: KIKIQINMWA [JR1]
Zeta-pot. / mV [mV]: 14.7
//
substance: CKAKAQANMWQ [BL8]
Zeta-pot. / mV [mV]: 0.7373
//
substance: QCKIKQII [CK6]
Zeta-pot. / mV [mV]: 11
//
substance: HHHHKIKIKIKIYYYY [TM6]
Zeta-pot. / mV [mV]: 13.2
//
substance: HHHHKAKAKAKAWWWW [TM8]
Zeta-pot. / mV [mV]: 17.4
